# system_name: T1, Cyno CD47 ECD protein, His-tagged, monomer (cyno)
# T1 construct: extracellular domain; also called cynomolgus CD47
# assay_notes: ProteOn SPR; cyno KD / human KD
parameter: KD Ratio Cyno/Human
In your answer, state the number alone without any accompanying words.

Please review the following examples before continuing.
# binder, observed
records = [
    ("C47B230 (antibody, V domains shown, human IgG2sigma/kappa) VH: EVQLVQSGAEVKKPGESLKISCKGSGYSFTDDWIGWVRQMPGKGLEWMGIIYPGDSDTRYSPSFQGQVTISADKSISTAYLQWSSLKASDTAVYYCARVGRFASHQLDYWGQGTLVTVSS VL: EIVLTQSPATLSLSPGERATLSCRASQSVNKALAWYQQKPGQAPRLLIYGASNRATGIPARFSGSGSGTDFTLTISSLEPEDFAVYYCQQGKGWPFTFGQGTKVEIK", 3.7),
    ("C47B241 (antibody, V domains shown, human IgG2sigma/kappa) VH: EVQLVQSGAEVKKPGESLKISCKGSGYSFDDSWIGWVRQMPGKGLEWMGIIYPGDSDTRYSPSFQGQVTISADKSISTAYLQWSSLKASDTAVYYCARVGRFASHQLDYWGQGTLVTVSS VL: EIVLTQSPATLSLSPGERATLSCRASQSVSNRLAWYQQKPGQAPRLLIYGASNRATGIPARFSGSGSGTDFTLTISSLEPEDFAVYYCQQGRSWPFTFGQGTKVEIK", 0.8),
    ("C47B238 (antibody, V domains shown, human IgG2sigma/kappa) VH: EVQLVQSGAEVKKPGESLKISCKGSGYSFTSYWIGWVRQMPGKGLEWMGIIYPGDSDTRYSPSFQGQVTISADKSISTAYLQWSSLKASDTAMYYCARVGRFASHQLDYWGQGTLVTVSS VL: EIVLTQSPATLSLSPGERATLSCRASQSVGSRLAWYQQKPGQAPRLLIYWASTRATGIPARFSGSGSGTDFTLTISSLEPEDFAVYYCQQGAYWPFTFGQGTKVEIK", 1.1),
    ("C47B240 (antibody, V domains shown, human IgG2sigma/kappa) VH: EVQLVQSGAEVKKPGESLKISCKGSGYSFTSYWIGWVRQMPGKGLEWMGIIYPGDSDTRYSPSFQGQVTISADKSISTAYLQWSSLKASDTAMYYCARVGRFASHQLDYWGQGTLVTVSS VL: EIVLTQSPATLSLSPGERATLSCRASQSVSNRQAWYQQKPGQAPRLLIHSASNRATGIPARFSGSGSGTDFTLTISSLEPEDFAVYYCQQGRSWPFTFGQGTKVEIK", 1.1),
    ("C47B237 (antibody, V domains shown, human IgG2sigma/kappa) VH: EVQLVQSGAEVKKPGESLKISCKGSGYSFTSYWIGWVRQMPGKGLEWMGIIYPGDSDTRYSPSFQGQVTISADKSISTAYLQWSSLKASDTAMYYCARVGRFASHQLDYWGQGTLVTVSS VL: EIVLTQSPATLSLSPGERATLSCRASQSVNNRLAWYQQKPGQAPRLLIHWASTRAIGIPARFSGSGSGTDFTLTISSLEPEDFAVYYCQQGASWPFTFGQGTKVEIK", 1.4),
    ("C47B243 (antibody, V domains shown, human IgG2sigma/kappa) VH: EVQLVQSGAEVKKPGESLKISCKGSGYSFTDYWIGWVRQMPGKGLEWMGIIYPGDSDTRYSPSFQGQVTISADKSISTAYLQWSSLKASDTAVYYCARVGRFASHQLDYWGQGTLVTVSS VL: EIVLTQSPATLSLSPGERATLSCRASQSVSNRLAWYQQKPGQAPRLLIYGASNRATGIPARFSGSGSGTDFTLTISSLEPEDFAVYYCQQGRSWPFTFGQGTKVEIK", 1),
    ("C47B235 (antibody, V domains shown, human IgG2sigma/kappa) VH: EVQLVQSGAEVKKPGESLKISCKGSGYSFDDYWISWVRQMPGKGLEWMGIIYPGDSDTRYSPSFQGQVTISADKSISTAYLQWSSLKASDTAVYYCARVGRFASHQLDYWGQGTLVTVSS VL: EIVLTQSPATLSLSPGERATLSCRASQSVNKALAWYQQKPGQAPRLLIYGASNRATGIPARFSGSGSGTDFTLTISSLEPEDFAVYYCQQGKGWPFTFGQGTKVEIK", 1.3),
    ("C47B218 (antibody, V domains shown, human IgG2sigma/kappa) VH: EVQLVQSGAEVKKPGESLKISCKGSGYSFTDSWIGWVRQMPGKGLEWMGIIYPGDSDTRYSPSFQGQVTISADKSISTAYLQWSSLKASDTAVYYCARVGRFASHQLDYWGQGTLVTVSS VL: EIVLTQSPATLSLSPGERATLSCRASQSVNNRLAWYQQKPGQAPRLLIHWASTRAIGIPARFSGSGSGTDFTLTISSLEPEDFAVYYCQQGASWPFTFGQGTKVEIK", 0.6),
]

Okay, next one:
Task: Please report KD Ratio Cyno/Human for the following binder: C47B244 (antibody, V domains shown, human IgG2sigma/kappa) VH: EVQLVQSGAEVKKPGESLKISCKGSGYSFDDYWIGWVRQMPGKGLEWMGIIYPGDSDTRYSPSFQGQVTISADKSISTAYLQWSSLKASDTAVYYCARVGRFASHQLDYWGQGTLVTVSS VL: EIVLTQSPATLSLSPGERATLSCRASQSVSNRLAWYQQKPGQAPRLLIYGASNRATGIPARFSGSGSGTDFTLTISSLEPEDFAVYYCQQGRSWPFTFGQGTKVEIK
Output: 0.7
